Biological target: Monoclonal antibody (mAb)
Assay: Binding affinity against Monoclonal antibody mAB-1B3 using [3H]digoxin as radioligand
endpoint-label: log10(Ki) (log10 of the value in nM)

| smiles-input | system-tested | log10(Ki) |
| --- | --- | --- |
| CC(=O)[C@H]1CC[C@H]2[C@@H]3CCC4=CC(=O)CC[C@]4(C)[C@H]3CC[C@]12C | Monoclonal antibody (mAb) | 4.56 |
| C[C@H]1O[C@@H](O[C@H]2[C@@H](O)C[C@H](O[C@H]3[C@@H](O)C[C@H](O[C@H]4CC[C@@]5(C)[C@H](CC[C@@H]6[C@@H]5CC[C@]5(C)[C@@H](C7=CC(=O)OC7)CC[C@]65O)C4)O[C@@H]3C)O[C@@H]2C)C[C@H](O)[C@@H]1O | Monoclonal antibody (mAb) | -1.00 |
| C[C@]12CC[C@H](O)C[C@H]1CC[C@@H]1[C@@H]2CC[C@]2(C)[C@@H](C3=CC(=O)OC3)CC[C@]12O | Monoclonal antibody (mAb) | 3.00 |
| C[C@H]1O[C@@H](O[C@H]2[C@@H](O)C[C@H](O[C@H]3[C@@H](O)C[C@H](O[C@H]4CC[C@@]5(C)[C@H](CC[C@@H]6[C@@H]5C[C@@H](O)[C@]5(C)[C@@H](C7=CC(=O)OC7)CC[C@]65O)C4)O[C@@H]3C)O[C@@H]2C)C[C@H](O)[C@@H]1O | Monoclonal antibody (mAb) | 0.08 |
| C[C@]12CC[C@H](O)C[C@H]1CC[C@@H]1[C@@H]2C[C@@H](O)[C@]2(C)[C@@H](C3=CC(=O)OC3)CC[C@]12O | Monoclonal antibody (mAb) | 3.49 |

* * *

System: Monoclonal antibody (mAb)
Test: Binding affinity against human monoclonal antibody (mAb)-5C2

| compound | IC50 ratio |
| --- | --- |
| CC(=O)O[C@H]1C[C@H](O[C@H]2[C@@H](O)C[C@H](O[C@H]3[C@@H](O)C[C@H](O[C@H]4CC[C@@]5(C)[C@H](CC[C@@H]6[C@@H]5C[C@@H](O)[C@]5(C)[C@@H](C7=CC(=O)OC7)CC[C@]65O)C4)O[C@@H]3C)O[C@@H]2C)O[C@H](C)[C@H]1O[C@@H]1O[C@H](CO)[C@@H](O)[C@H](O)[C@H]1O | 1.1 |
| CO[C@H]1C[C@H](O[C@H]2CC[C@@]3(C)[C@H](CC[C@@H]4[C@@H]3CC[C@]3(C)[C@@H](C5=CC(=O)OC5)[C@@H](OC(C)=O)C[C@]43O)C2)O[C@@H](C)[C@@H]1O | No inhibition |
| C[C@]12CC[C@H]3[C@@H](CC[C@]4(O)C[C@@H](O)CC[C@]34C=O)[C@@]1(O)CC[C@@H]2C1=CC(=O)OC1 | 470 |
| C[C@]12CC[C@H](O)C[C@H]1CC[C@@H]1[C@@H]2CC[C@]2(C)[C@@H](C3=CC(=O)OC3)[C@@H](O)C[C@]12O | 2700 |
| C[C@H]1O[C@@H](O[C@H]2CC[C@@]3(C)[C@H](CC[C@@H]4[C@@H]3C[C@@H](O)[C@]3(C)[C@@H](C5=CC(=O)OC5)CC[C@]43O)C2)C[C@H](O)[C@@H]1O | 1.3 |
| C[C@]12CCC(=O)C=C1CC[C@@H]1[C@@H]2[C@@H](O)C[C@@]2(C)[C@H]1CC[C@]2(O)C(=O)CO | 650 |
| C[C@]12CC[C@H](O)CC1CC[C@@H]1[C@@H]2CC[C@]2(C)[C@@H](C3=CC(=O)OC3)CC[C@]12O (single isomer, unassigned) | 3.6 |
| CO[C@H]1[C@H](O)[C@H](O[C@H]2CC[C@@]3(C)[C@H](CC[C@@H]4[C@@H]3CC[C@]3(C)[C@@H](C5=CC(=O)OC5)CC[C@]43O)C2)O[C@@H](C)[C@@H]1O | 21 |
| CC(=O)O[C@H]1[C@H]2O[C@]23[C@@H]2CC[C@@H]4C[C@@H](O)CC[C@]4(C)[C@H]2CC[C@]3(C)[C@H]1c1ccc(=O)oc1 | 570 |
| CC(=O)O[C@H]1C[C@H](O[C@H]2[C@@H](O)C[C@H](O[C@H]3[C@@H](O)C[C@H](O[C@H]4CC[C@@]5(C)[C@H](CC[C@@H]6[C@@H]5CC[C@]5(C)[C@@H](C7=CC(=O)OC7)CC[C@]65O)C4)O[C@@H]3C)O[C@@H]2C)O[C@H](C)[C@H]1O | 48 |
| CO[C@H]1C(O)[C@H](O[C@H]2CC[C@@]3(C)[C@H](CC[C@@H]4[C@@H]3CC[C@]3(C)[C@@H](C5=CC(=O)OC5)CC[C@]43O)C2)O[C@@H](C)[C@@H]1O[C@@H]1O[C@H](CO[C@@H]2O[C@H](CO)[C@@H](O)[C@H](O)[C@H]2O)[C@@H](O)[C@H](O)[C@H]1O (stereo partly specified) | 7.6 |
| C[C@H]1O[C@@H](O[C@H]2[C@@H](O)C[C@H](O[C@H]3[C@@H](O)C[C@H](O[C@H]4CC[C@@]5(C)[C@H](CC[C@@H]6[C@@H]5CC[C@]5(C)[C@@H](C7=CC(=O)OC7)CC[C@]65O)C4)O[C@@H]3C)O[C@@H]2C)C[C@H](O)[C@@H]1O [DIGITOXIN] | 10 |
| CC(=O)O[C@H]1CC[C@]2(C=O)[C@H]3CC[C@]4(C)[C@@H](C5=CC(=O)OC5)CC[C@]4(O)[C@@H]3CC[C@]2(O)C1 | 44 |
| C[C@]12CC[C@H](O)C[C@H]1CC[C@@H]1[C@@H]2CC[C@]2(C)[C@@H](C3=CC(=O)OC3)CC[C@]12O [DIGITOXIGENIN] | 14 |
| C[C@]12CCC(=O)C=C1CC[C@@H]1[C@@H]2C(=O)C[C@@]2(C)[C@H]1CC[C@]2(O)C(=O)CO | No inhibition |
| C[C@]12CC[C@H](O)C[C@H]1CC[C@@H]1[C@@H]2CC[C@]2(C)[C@@H](c3ccc(=O)oc3)CC[C@]12O | 250 |
| C[C@]12C[C@H](O)[C@H]3[C@@H](CCC4=CC(=O)CC[C@@]43C)[C@@H]1CC[C@@H]2C(=O)CO | 420 |
| C[C@@H]1O[C@H](O[C@H]2CC[C@@]3(C)[C@H](CC[C@@H]4[C@@H]3CC[C@]3(C)[C@@H](C5=CC(=O)OC5)CC[C@]43O)C2)[C@@H](O)[C@@H](O)[C@@H]1O | 21 |
| C[C@]12CC[C@H](O)C[C@H]1CC[C@@H]1[C@@H]2C[C@@H](O)[C@]2(C)[C@@H](C3=CC(=O)OC3)CC[C@]12O [DIGOXIGENIN] | 2.9 |
| C[C@H]1O[C@@H](O[C@H]2[C@@H](O)C[C@H](O[C@H]3[C@@H](O)C[C@H](O[C@H]4CC[C@@]5(C)[C@H](CC[C@@H]6[C@@H]5CC[C@]5(C)[C@@H](C7=CC(=O)OC7)[C@@H](O)C[C@]65O)C4)O[C@@H]3C)O[C@@H]2C)C[C@H](O)[C@@H]1O | 130 |

* * *

Tested on: Monoclonal antibody (mAb)
Assay: Binding affinity against human monoclonal antibody (mAb)-1B3

| smiles-input | IC50 ratio |
| --- | --- |
| CC(=O)O[C@]1(C(C)=O)CC[C@H]2[C@@H]3C=C(Cl)C4=CC(=O)CC[C@]4(C)[C@H]3CC[C@@]21C | No inhibition |
| C[C@]12CC[C@H](O)C[C@H]1CC[C@@H]1[C@@H]2C[C@@H](O)[C@]2(C)[C@@H](C3=CC(=O)OC3)CC[C@]12O | 2700 |
| C[C@]12C=CC(=O)C=C1CC[C@@H]1[C@@H]2C(=O)C[C@@]2(C)[C@H]1CC[C@]2(O)C(=O)CO | No inhibition |

* * *

Each entry below carries its reported IC50 ratio.
Tested on: Monoclonal antibody (mAb)
Test: Binding affinity against human monoclonal antibody (mAb)-11E6

| smiles-input | IC50 ratio |
| --- | --- |
| CC(=O)O[C@H]1[C@H]2O[C@]23[C@@H]2CC[C@@H]4C[C@@H](O)CC[C@]4(C)[C@H]2CC[C@]3(C)[C@H]1c1ccc(=O)oc1 | 800 |
| C[C@H]1O[C@@H](O[C@H]2[C@@H](O)C[C@H](O[C@H]3[C@@H](O)C[C@H](O[C@H]4CC[C@@]5(C)[C@H](CC[C@@H]6[C@@H]5C[C@@H](O)[C@]5(C)[C@@H](C7=CC(=O)OC7)CC[C@]65O)C4)O[C@@H]3C)O[C@@H]2C)C[C@H](O)[C@@H]1O | 1 |
| C[C@H]1O[C@@H](O[C@H]2[C@@H](O)C[C@H](O[C@H]3CC[C@@]4(C)[C@H](CC[C@@H]5[C@@H]4C[C@@H](O)[C@]4(C)[C@@H](C6=CC(=O)OC6)CC[C@]54O)C3)O[C@@H]2C)C[C@H](O)[C@@H]1O | 0.9 |
| CO[C@H]1[C@H](O)[C@H](O[C@H]2CC[C@@]3(C)[C@H](CC[C@@H]4[C@@H]3CC[C@]3(C)[C@@H](C5=CC(=O)OC5)CC[C@]43O)C2)O[C@@H](C)[C@@H]1O | 17 |
| C[C@]12CC[C@H]3[C@@H](CCC4=CC(=O)CC[C@@]43C)[C@@H]1CC[C@@H]2O | 110 |

Data credit: ChEMBL document CHEMBL1135516
